Data provenance is ChEMBL document CHEMBL3046441.

- PROCEDURE TEXT: Apparent hydrophobicity, log D of the compound in Octanol-buffer
- Assay type: physicochemical
- ASSAY CONTEXT: octanol/buffer
just bin them by logD: interval 1 = under 0.6, interval 2 = from 0.6 up to 3, interval 3 = 3 and over

For orientation, consider the following solved cases.
COP(=S)(OC)Oc1ccc(SC)c(C)c1 : interval 3
C=CCc1ccccc1OCC(O)CNC(C)C (configuration not stated) : interval 2
CC(C)(C)N(NC(=O)c1ccccc1)C(=O)c1ccccc1 : interval 2

Could you tell me which band O=C(O)c1ccccc1O belongs to?
interval 1

Okay, and COc1cccc(C(=O)NN(C(=O)c2cc(C)cc(C)c2)C(C)(C)C)c1C [METHOXYFENOZIDE] ?
interval 3

Same for Cc1cc(C)cc(C(=O)N(NC(=O)c2ccc3c(c2C)CCCO3)C(C)(C)C)c1 [CHROMAFENOZIDE]
interval 2

Now give it for C=CCOc1ccccc1OCC(O)CNC(C)C (configuration not stated) too.
interval 1

Same lookup for CC(C)(C)NCC(O)COc1cccc2c1CC(O)C(O)C2 (configuration not stated) , please.
interval 1

Here is the next compound: COP1(=S)OCc2ccccc2O1 (configuration not stated)
interval 2

Next up: COCCc1ccc(OCC(O)CNC(C)C)cc1 (configuration not stated)
interval 1

Could you do the same for CCOC(=O)C(SP(=S)(OC)OC)c1ccccc1 (configuration not stated) [PHENTHOATE] , please?
interval 3
